# Tested on: MS2 coat protein
# EXPERIMENT_SUMMARY: apparent KD of MS2 coat protein; higher = weaker reporter binding
# RUN_PARAMETERS: Eterna round: R101; input ligand: FMN 200 uM
Entries and their measured apparent KD of MS2 coat protein follow.
Answer in nM, number only, no unit symbol.

Solved entries:
AAAUAAUCCUCAGGAUAUGACUCCGAAACGGAGUCAGAAGGGAGGAUCACCCUCUUCAGCUCAGCGUCGAAAGACGCUGAGCAA [#SharedSequence ExNG1 - 23] (puzzle (switch architecture): Exclusion NG 1) | 11.9
UAUAAUCUUUAAGGAUAUCAGUGGCUUUGCCACUGAGAAGGUGAGGAUCACCCACCUACGUGACCCUGGUUUCAGGGUCACGAU [#AddUracilToBrourdLoops 10 - Jieux - Exclusion NG1] (puzzle (switch architecture): Exclusion NG 1) | 11.6
UAUUAUAUGGAGAAGGACAUGAGGAUCACCCAUGUCGCCGGGCCCGGGAAACCGGGCCCGGCCAUGUAGGAUAUCCAUAUGGUA [#This is a good prank 6] (puzzle (switch architecture): Inverted Exclusion NG 2) | 5.41

State the recorded apparent KD of MS2 coat protein for this entry: GGCAGCACUUAGAAGGGAGUGCGAUAAUCGCACUCAGGAUAUGAGGAUCACCCAUAUCAAGCUGCCACUGAGGCAAAGCCUCAG [#SharedSequence - IEx NG 4-1] (puzzle (switch architecture): Inverted Exclusion NG 1)
9.42

What measured apparent KD of MS2 coat protein goes with UUUAGUUUGUAGAAGGGUGACAUGAGGAUCACCCAUGUGCGUCGCCUGAAAGACCAGGGUACGCCACAGGAUAUACAAAGUAAA [Tiveedbila] (puzzle (switch architecture): Inverted Same State NG 2) ?
76.8

Please give the measured apparent KD of MS2 coat protein for this sequence: CUGGUUGUCGUAGGAUAUGUAGGAUAUUCCUACAUGAGGAUCACCCAUGUUCGCAUGGAAGAAGGACAGAAGGACGAUGACCAG [salish99_SSNG2_013 #endbits investigation] (puzzle (switch architecture): Same State NG 2)
9.22

Find the recorded apparent KD of MS2 coat protein belonging to CACCUAAAUCCUAGAGGAUCACCCUAGGAUAUCACCGUCGAGGUGCCAUAAUGGCACCUCGACGGUGAGAAGGAGGAAAAAUAA [#SharedSequence - SLExNG3: 10] (puzzle (switch architecture): Small Loop Exclusion NG 3) and report it.
5.85

What value of apparent KD of MS2 coat protein has been reported for the following sequence? GUUGGAUUUCAGAAGGGCUCCAGCAAAGCUGGAGCAGGAUAUGAGGAUCACCCAUAUCAAUCUCCAGAAUUGAUAUGAAUCAAU [#SharedSequence - IExNG1: 9-1] (puzzle (switch architecture): Inverted Exclusion NG 1)
317

Need apparent KD of MS2 coat protein, item GCCAUCGCAUGAGGAUAUGCUCGGGUUUCCCGAGCAGAAGGCAUGUCAUAAGACAUGAGGAUCACCCAUGUAGUUAAGAUGGCA [#HiddenHairpinInALoop - Mat - Same State NG 1 - JL mod - D3] (puzzle (switch architecture): Same State NG 1)
12.7

# lookup: apparent KD of MS2 coat protein of UAAAUAAAUCCUAGAGGAUCACCCUAGGAUAUCACCGUCGAGGUGCCAUAAUGGCACCUCGACGGUGAGAAGGAGGAAAAUAAA [#SharedSequence - SLExNG3: 4] (puzzle (switch architecture): Small Loop Exclusion NG 3)
6.64

Find the recorded apparent KD of MS2 coat protein belonging to CCUGCACCUCAAGGAUAUCCAGUCGUUUCGACUGGAGAAGGUGAGGAUCACCCAUCUAGCCUGACGUUUGUCAGGCAUGCAGGU [#AddUracilToBrourdLoops 5 - Jieux - Exclusion NG1] (puzzle (switch architecture): Exclusion NG 1) and report it.
929

Look at this sequence and give its reported apparent KD of MS2 coat protein. AAUAAUCUUUAAGGAUAUGACUCCGAAACGGAGUCAGAAGGUGAGGAUCACCCACCUAGCUCAGGGUCGAAAGACCCUGAGCAA [#SharedSequence - ExNG1-9] (puzzle (switch architecture): Exclusion NG 1)
10.6

Give the measured apparent KD of MS2 coat protein of GGGUACAUCGGAGGAUAUCAUGUAAAUACAUGAGGAUCACCCAUGUCGAUGGAGACAUGGGAGAUUGAGAAGGCCGAUGUACCG (puzzle (switch architecture): Same State NG 2) .
31.7

Record request: apparent KD of MS2 coat protein value, item CACCUAAAUCCUAGAGGAUCACCCUAGGAUAUCACCGUCGAGGUGCCAUAAUGGCACCUCGACGGUGAGAAGGAGGGUGAAAUA [#SharedSequence - SLExNG3: 8] (puzzle (switch architecture): Small Loop Exclusion NG 3)
6.49

What apparent KD of MS2 coat protein value was documented for this sequence, AAAGAUUUUUAAGGAUAUCAGUGGCAAAGCCACUGAGAAGGUGAGGAUCACCCACCUACGUGACGCUGGAAACAGCGUCACGAA [#SharedSequence ExNG1 - 25] (puzzle (switch architecture): Exclusion NG 1) ?
12.7

What value of measured apparent KD of MS2 coat protein is listed for AAAUGAUAUCAGAAGGCGUGGACGAAACGUCCACGAGGAUAUGAGGAUCACCCAUAUCAGGUCAGCCUGCAAAGCAGGCUGACC [#SharedSequence - IExNG1: 7-2] (puzzle (switch architecture): Inverted Exclusion NG 1) ?
126
